- target-desc: glutathione S-transferase (GST)-fused full-length human Syk protein (Homo sapiens, UniProt P43405)
- Construct: (GST)-fused full-length human Syk protein; GST (glutathione S-transferase); purchased Carna Biosciences
- procedure-summary: Syk enzyme assay
- Type: biochemical
- experimental-setup: Syk enzyme assay, Test Example 1; read-out: IC50 of Syk-inhibitory activity
measurement-kind: IC50

> print(dat)
                                   compound  endpoint.result
1  NC(=O)c1cc(F)c(N[C@@H]2CCCC[C@@H]2N)nc1Nc1cnc(C2CC2)c(Cl)c1      10 to 50 nM
2  CNc1cc(Nc2nc(N[C@@H]3CCCC[C@@H]3N)c(F)cc2C(N)=O)cc2cccnc12 (relative stereo)          < 10 nM
3  CCOc1ccccc1C(=O)Nc1cncc(Nc2nc(NC3CCCCC3N)c(F)cc2C(N)=O)c1 (stereo not drawn)      10 to 50 nM
4  Cn1ncc2cc(Nc3nc(N[C@@H]4CCCC[C@@H]4N)c(F)cc3C(N)=O)cnc21      10 to 50 nM
5  NC(=O)c1cc(F)c(N[C@@H]2CCCC[C@@H]2N)nc1Nc1cncc2c1cnn2-c1ccccc1          < 10 nM
6  C[C@H](N)[C@@H](CC1CC1)Nc1nc(Nc2cncc(C3CC3)c2)c(C(N)=O)cc1F          < 10 nM

----------
- Test system: THP-1 cells
- procedure-summary: TNFα generation assay
- Format: cell-based, human
- experimental-setup: Homo sapiens, THP-1, THP-1 cells; Table 22; read-out: IC50 in TNFα generation assay
pIC50: −log10 of the molar value.
measurement-kind: pIC50

> print(dat)
                                   molecule  endpoint.result
1  COC[C@@H](Nc1nc(Nc2ccnc(OC)c2)c(C(N)=O)cc1F)[C@H](C)N     6.89 to 7.19
2  NC(=O)c1cc(F)c(N[C@@H]2CCCC[C@@H]2N)nc1Nc1cnc(C2CC2)c(F)c1     6.70 to 6.89
3  CC[C@@H](Nc1nc(Nc2ccc3c(c2)c(-n2cccn2)nn3C)c(C(N)=O)cc1F)[C@H](C)N     6.89 to 7.19
4  NC(=O)c1cc(F)c(N[C@@H]2CCCC[C@@H]2N)nc1Nc1cnc(-n2cccn2)c(Cl)c1     6.70 to 6.89
5  CC(C)C[C@H](CN)Nc1nc(Nc2ccnc(-c3ccoc3)c2)c(C(N)=O)cc1F     6.89 to 7.19
6  NC(=O)c1cc(F)c(NCC(N)C2CC2)nc1Nc1ccc2ncccc2c1 (stereo not drawn)     6.70 to 6.89
7  CCCC[C@@H](Nc1nc(Nc2cc(OC)nc(OC)c2)c(C(N)=O)cc1F)[C@H](C)N     6.70 to 6.89
8  CCC[C@@H](Nc1nc(Nc2cc(OC)nc(OC)c2)c(C(N)=O)cc1F)[C@H](C)N     6.89 to 7.19
9  CCc1nn(C2CC2)c2ccc(Nc3nc(N[C@@H]4CCCC[C@@H]4N)c(F)cc3C(N)=O)cc12     6.89 to 7.19

----------
Consider the following compounds and their measured pIC50 readings.
- target-desc: glutathione S-transferase (GST)-fused full-length human Syk protein (Homo sapiens)
- Construct: (GST)-fused full-length human Syk protein; GST (glutathione S-transferase); purchased Carna Biosciences
- procedure-summary: Syk enzyme assay
- Type: biochemical
- experimental-setup: Syk enzyme assay, Test Example 1; read-out: IC50 of Syk-inhibitory activity
pIC50: −log10 of the molar value.
measurement-kind: pIC50

> print(dat)
                                    compound  measurement.kind  endpoint.result
 1  NC(=O)c1cc(F)c(N[C@@H]2CCCC[C@@H]2N)nc1Nc1cncc(N2CCCCC2)c1 (relative stereo) [Example 004-050]             pIC50     7.30 to 8.00
 2  COCCOc1cc(Nc2nc(N[C@H](CC3CC3)[C@H](C)N)c(F)cc2C(N)=O)ccn1 [Example 006-394]             pIC50           > 8.00
 3  CC(C)C[C@H](CN)Nc1nc(Nc2ccnc(-n3ccnn3)c2)c(C(N)=O)cc1F [Example 006-143]             pIC50           > 8.00
 4  Cc1ccc(S(=O)(=O)Nc2cccc3cc(Nc4nc(NC5CCCC[C@@H]5N)c(F)cc4C(N)=O)cnc23)cc1 (stereo partly shown) [Example 41-4]             pIC50     7.00 to 7.30
 5  Cc1cc(Nc2nc(N[C@@H]3CCCC[C@@H]3N)c(F)cc2C(N)=O)cnc1-n1cccn1 [Example 006-499]             pIC50     7.30 to 8.00
 6  C[C@H](N)[C@@H](CC1CC1)Nc1nc(Nc2ccc3c(F)nn(C)c3c2)c(C(N)=O)cc1F [Example 006-440]             pIC50     7.30 to 8.00
 7  CCC[C@@H](Nc1nc(Nc2ccc3ncccc3c2)c(C(N)=O)cc1F)[C@H](C)N [Example 006-207]             pIC50           > 8.00
 8  CC[C@@H](Nc1nc(Nc2ccc3c(c2)c(C)nn3CC(F)F)c(C(N)=O)cc1F)[C@H](C)N [Example 006-526]             pIC50           > 8.00
 9  NC(=O)c1cc(F)c(NC2CCCCC2N)nc1Nc1cncc(NC(=O)c2ccc(F)cc2F)c1 (stereo not shown) [Example 027-029]             pIC50     7.30 to 8.00
10  C[C@H](N)[C@@H](CC1CC1)Nc1nc(Nc2ccc3nccnc3c2)c(C(N)=O)cc1F [Example 006-347]             pIC50     7.30 to 8.00

----------
- target-desc: glutathione S-transferase (GST)-fused full-length human Syk protein (Homo sapiens, UniProt P43405)
- Construct: (GST)-fused full-length human Syk protein; GST (glutathione S-transferase); purchased Carna Biosciences
- procedure-summary: Syk enzyme assay
- Assay type: biochemical
- experimental-setup: Syk enzyme assay, Test Example 1; read-out: IC50 of Syk-inhibitory activity
measurement-kind: IC50

> print(dat)
                                    molecule  endpoint.result
 1  Cc1nn(C2CC2)c2ccc(Nc3nc(N[C@@H]4CCCC[C@@H]4N)c(F)cc3C(N)=O)cc12          < 10 nM
 2  NC(=O)c1cc(F)c(NC2CCCCC2N)nc1Nc1cncc(-c2ccc3c(c2)NC(=O)CO3)c1 (stereo not shown)          < 10 nM
 3  NCCNc1nc(Nc2cncc(-c3ccccc3)c2)c(C(N)=O)cc1F      10 to 50 nM
 4  NC(=O)c1cc(F)c(N[C@@H]2CCCC[C@@H]2N)nc1Nc1cncc(-c2ccc3c(c2)OCCO3)c1 (relative stereo)          < 10 nM
 5  CCC[C@@H](Nc1nc(Nc2cc(OC)nc(OC)c2)c(C(N)=O)cc1F)[C@H](C)N          < 10 nM
 6  NC(=O)c1cc(F)c(N[C@@H]2CCCC[C@@H]2N)nc1Nc1cncc(-c2ccccc2F)c1 [Example 006-166]          < 10 nM
 7  NC(=O)c1cc(F)c(NC2CCCCC2N)nc1Nc1ccc2c(cnn2Cc2ccccc2)c1 (stereo not shown)     50 to 100 nM
 8  CS(=O)(=O)Nc1cccc2cc(Nc3nc(N[C@@H]4CCCC[C@@H]4N)c(F)cc3C(N)=O)cnc12 (relative stereo)          < 10 nM
 9  NC(=O)c1cc(F)c(NC2CCCCC2N)nc1Nc1cccc(C(F)(F)F)c1 (stereo not shown)          < 10 nM
10  NC(=O)c1cc(F)c(N[C@@H]2CCCC[C@@H]2N)nc1Nc1ccnc2c1ccn2CCN1CCCCC1          < 10 nM
